Biological target: GST-Ap-NF-kB RHD (Exaiptasia pallida (Aiptasia), UniProt A0A913YAJ5 2-422)
Sequence: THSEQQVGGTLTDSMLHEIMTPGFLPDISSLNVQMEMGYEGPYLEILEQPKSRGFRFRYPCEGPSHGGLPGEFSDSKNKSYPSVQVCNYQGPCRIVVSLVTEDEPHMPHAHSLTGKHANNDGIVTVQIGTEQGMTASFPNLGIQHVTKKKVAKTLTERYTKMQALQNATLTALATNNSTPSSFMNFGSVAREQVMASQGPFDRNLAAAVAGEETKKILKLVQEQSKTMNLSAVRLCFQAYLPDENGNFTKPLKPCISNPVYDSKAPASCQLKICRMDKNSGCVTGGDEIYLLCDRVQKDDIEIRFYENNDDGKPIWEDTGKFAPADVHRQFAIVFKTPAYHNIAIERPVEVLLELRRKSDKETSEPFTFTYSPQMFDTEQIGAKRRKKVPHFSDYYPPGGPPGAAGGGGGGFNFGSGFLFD
Test: protein-binding microarray (PBM); PBM: ~300 nM protein, 6 mM HEPES pH 7.8, 80 mM KCl, 0.5 mM EDTA, 0.5 mM EGTA, 6% glycerol, 35 ng/ul poly-dIdC, 1% milk, 1 h, room temperature; Ap Aiptasia and Nv Nematostella (sea anemones) / Co Capsaspora / Aq Amphimedon (sponge) / Dm Drosophila / Hu human; RHD is the Rel homology domain; high values mean tight binding
Settings: dsDNA, one strand shown
metric: binding signal

CCGATTAACATCATCCCCGTGTCTGATGTTAATCGGGTCTTGATTCGCTTGACGCTGCTG = 2.75 z-score
CCGATTAACATCAGGGGACGGGATGATGTTAATCGGGTCTTGATTCGCTTGACGCTGCTG = 4.78 z-score
CCGATTAACATCAAAGCTTTCCCTGATGTTAATCGGGTCTTGATTCGCTTGACGCTGCTG = 2.54 z-score
CCGATTAACATCAGGGGGGACCCTGATGTTAATCGGGTCTTGATTCGCTTGACGCTGCTG = 6.34 z-score
CCGATTAACATCAATGGGTTTTCTGATGTTAATCGGGTCTTGATTCGCTTGACGCTGCTG = 1.73 z-score
CCGATTAACATCATTAGGGTATTTGATGTTAATCGGGTCTTGATTCGCTTGACGCTGCTG = 2.55 z-score
CCGATTAACATCACGGGTTTCCCTGATGTTAATCGGGTCTTGATTCGCTTGACGCTGCTG = 3.92 z-score
CCGATTAACATCAAAATCCCCCTTGATGTTAATCGGGTCTTGATTCGCTTGACGCTGCTG = 10.1 z-score
CCGATTAACATCACCACCACCCCTGATGTTAATCGGGTCTTGATTCGCTTGACGCTGCTG = 1.55 z-score
